Reported pEC50 by item:
# measurement target: μ-opioid receptor (Homo sapiens (Human), UniProt P35372)
# protocol description: μ-opioid receptor [35S]GTPγS functional assay (U-2 OS)
# Format: biochemical
pEC50: −log10 of the molar value.

{"columns": ["item smiles", "measurement target", "pEC50"],
 "data": [
  ["CCN1C(=O)C[C@@H]2C[C@@]3(O)[C@H]4Cc5ccc(OC)cc5[C@@]3(CCN4CC3CC3)C[C@@H]21", "μ-opioid receptor (Homo sapiens (Human), UniProt P35372)", 6.69],
  ["COc1ccc2c(c1)[C@]13CCN(CC4CC4)[C@H](C2)[C@]1(O)C[C@H]1CC(=O)N(CC2CC2)[C@H]1C3", "μ-opioid receptor (Homo sapiens (Human), UniProt P35372)", 7.31],
  ["COc1ccc2c(c1)[C@]13CCN(C)[C@H](C2)[C@]1(O)CC1=CC(=O)N[C@H]1C3", "μ-opioid receptor (Homo sapiens (Human), UniProt P35372)", 6.13]
]}

====

# measurement target: μ-opioid receptor (Homo sapiens (Human), UniProt P35372)
# protocol description: μ-opioid receptor [35S]GTPγS functional assay (HEK)
# Type: biochemical
# test parameters: HEK; GTPγS; relative to DAMGO
Please note: Fulfilled applies when Emax is 20% or greater, and Not fulfilled applies otherwise.

{"columns": ["compound", "class label"],
 "data": [
  ["O=C1C[C@@H]2C[C@@]3(O)[C@H]4Cc5ccc(O)cc5[C@@]3(CCN4CC3CC3)C[C@@H]2N1CC1CC1 [Compound 17]", "Not fulfilled"],
  ["CN1CC[C@]23C[C@@H]4OC(=O)N[C@H]4C[C@@]2(O)[C@H]1Cc1ccc(O)cc13 [Compound 20]", "Not fulfilled"],
  ["O=C1C[C@@H]2C[C@@]3(O)[C@H]4Cc5ccc(O)cc5[C@@]3(CCN4CC3CC3)C[C@@H]2N1 [Compound 10]", "Not fulfilled"],
  ["O=C1C[C@@H]2C[C@@]3(O)[C@H]4Cc5ccc(O)cc5[C@@]3(CCN4CCCc3ccccc3)C[C@@H]2N1 [Compound 4]", "Fulfilled"],
  ["O=C1C=C2C[C@@]3(O)[C@H]4Cc5ccc(O)cc5[C@]3(C=C2N1CC1CC1)CCN4CC1CC1 [Compound 18]", "Not fulfilled"],
  ["COc1ccc2c(c1)[C@]13CCN(CC4CC4)[C@H](C2)[C@]1(O)C[C@H]1CC(=O)N(C)[C@H]1C3 [Compound 15]", "Fulfilled"],
  ["COc1ccc2c(c1)[C@]13CCN(C)[C@H](C2)[C@]1(O)C[C@@H]1NC(=O)O[C@@H]1C3 [Compound 19]", "Not fulfilled"],
  ["CN1C(=O)C[C@@H]2C[C@@]3(O)[C@H]4Cc5ccc(O)cc5[C@@]3(CCN4CC3CC3)C[C@@H]21 [Compound 12]", "Fulfilled"]
]}

====

# measurement target: κ opioid receptor (Homo sapiens (Human), UniProt P41145)
# protocol description: κ-opioid receptor [35S]GTPγS functional assay (HEK)
# Type: biochemical
# test parameters: HEK; GTPγS; relative to U69,593
readout type: Emax (%)

{"columns": ["compound", "readout type", "unit abbreviation", "test value"],
 "data": [
  ["COc1ccc2c(c1)[C@]13CCN(CC4CC4)[C@H](C2)[C@]1(O)CC1=CC(=O)NC1C3 (stereo partly shown)", "Emax", "%", 66.7],
  ["O=C1C=C2C[C@@]3(O)[C@H]4Cc5ccc(O)cc5[C@@]3(CCN4CC3CC3)CC2N1 (stereo partly shown)", "Emax", "%", 27.2],
  ["CCN1C(=O)C[C@@H]2C[C@@]3(O)[C@H]4Cc5ccc(O)cc5[C@@]3(CCN4CC3CC3)C[C@@H]21", "Emax", "%", 49.7],
  ["O=C1C[C@@H]2C[C@@]3(O)[C@H]4Cc5ccc(O)cc5[C@@]3(CCN4CC3CC3)C[C@@H]2N1", "Emax", "%", 76.2]
]}
